The reported numbers originate from PubChem BioAssay AID1918940.

- System: NCI-H211 complex spheroid viability
- Assay details: Anticancer human tumor NCI-H211 cell line growth inhibition [LSD1]
- Study conditions: second compound 3.16 µM; first compound 0.03 µM; stronger effect = lower value
- Source text: Multicellular complex tumor spheroid response to LSD1 Inhibitor Iadademstat in combination with a variety of drugs and investigational agents in selected tumor cell lines The current study was undertaken to assess response to LSD1 inhibitors in combination with standard-of-care drugs and investigational agents in solid tumor complex spheroid models as well as in the K-562 leukemia. […] Compounds. […] If the clinical Cmax for an agent had not been determined, the highest concentration tested was 10 microM. […]
viability, T/C by entry:
Endpoint label: viability, T/C (%)

compound="Nc1ccccc1NC(=O)c1ccc(CNC(=O)OCc2cccnc2)cc1 + NC1CCC(NC2CC2c2ccccc2)CC1" unit_of_measurement=% measured_result=20.3
compound="CCc1c2c(nc3ccc(O)cc13)-c1cc3c(c(=O)n1C2)COC(=O)[C@]3(O)CC + NC1CCC(NC2CC2c2ccccc2)CC1" unit_of_measurement=% measured_result=0.58
compound="Nc1ccn(C2OC(CO)C(O)C2(F)F)c(=O)n1 (stereo not given) + NC1CC1c1ccc(-c2cccc(O)c2)cc1" unit_of_measurement=% measured_result=4.09
compound="CCN(c1cc(-c2ccc(CN3CCOCC3)cc2)cc(C(=O)NCc2c(C)cc(C)[nH]c2=O)c1C)C1CCOCC1 + NC1CCC(NC2CC2c2ccccc2)CC1" unit_of_measurement=% measured_result=48.4
compound="COc1cc(C2c3cc4c(cc3C(OC3OC5COC(C)OC5C(O)C3O)C3COC(=O)C23)OCO4)cc(OC)c1O (stereo not given) + NC1CCC(NC2CC2c2ccccc2)CC1" unit_of_measurement=% measured_result=10.5

----------
- Test system: NCI-H211 complex spheroid viability
- Assay details: Anticancer human tumor NCI-H211 cell line growth inhibition [LSD1]; active means viability on the fitted dose curve at most 10% of control; inactive means the rest
- Study conditions: second compound 10 µM; first compound 0.000949 µM
Possible outcomes: active, inactive

molecule="Nc1ccn(C2OC(CO)C(O)C2(F)F)c(=O)n1 (stereo unspecified) + NC1CCC(NC2CC2c2ccccc2)CC1" label=active
molecule="CCc1c2c(nc3ccc(O)cc13)-c1cc3c(c(=O)n1C2)COC(=O)[C@]3(O)CC + NC1CCC(NC2CC2c2ccccc2)CC1" label=active
molecule="Nc1ccn(C2OC(CO)C(O)C2(F)F)c(=O)n1 (stereo unspecified) + NC1CC1c1ccc(-c2cccc(O)c2)cc1" label=active
molecule="CCc1c2c(nc3ccc(O)cc13)-c1cc3c(c(=O)n1C2)COC(=O)[C@]3(O)CC + NC1CC1c1ccc(-c2cccc(O)c2)cc1" label=active
molecule="Nc1ncn(C2CC(O)C(CO)S2)c(=O)n1 (stereo unspecified) + NC1CC1c1ccc(-c2cccc(O)c2)cc1" label=inactive
molecule="Nc1ncn(C2CC(O)C(CO)S2)c(=O)n1 (stereo unspecified) + NC1CCC(NC2CC2c2ccccc2)CC1" label=inactive

----------
Reported viability, T/C values for the following compounds.
- Tested on: NCI-H211 complex spheroid viability
- Assay details: Anticancer human tumor NCI-H211 cell line growth inhibition [LSD1];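 also: luminescent viability read after seven days of drug exposure; 100% = DMSO vehicle control viability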
- Study conditions: second compound 10 µM; first compound 3.16 µM; stronger effect = lower value
Endpoint label: viability, T/C (%)

compound="O=C(c1cc(Cc2n[nH]c(=O)c3ccccc23)ccc1F)N1CCN(C(=O)C2CC2)CC1 + NC1CCC(NC2CC2c2ccccc2)CC1" unit_of_measurement=% measured_result=1.25
compound="COc1ccc([C@@H](O)c2cc(-c3ncnc4cc(N5CCOCC5)ccc34)c(F)cc2Cl)nn1 + NC1CCC(NC2CC2c2ccccc2)CC1" unit_of_measurement=% measured_result=49
compound="CC(C)c1c(-c2ccccc2)nc2c(C#N)c[nH]n2c1=O + NC1CCC(NC2CC2c2ccccc2)CC1" unit_of_measurement=% measured_result=32.2
compound="CC1(C)CCC(CN2CCN(c3ccc(C(=O)NS(=O)(=O)c4ccc(NCC5CCOCC5)c([N+](=O)[O-])c4)c(Oc4cnc5[nH]ccc5c4)c3)CC2)=C(c2ccc(Cl)cc2)C1 + NC1CC1c1ccc(-c2cccc(O)c2)cc1" unit_of_measurement=% measured_result=30.5

----------
- Tested on: NCI-H211 complex spheroid viability
- Assay details: Anticancer human tumor NCI-H211 cell line growth inhibition [LSD1];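 also: luminescent viability read after seven days of drug exposure; 100% = DMSO vehicle control viability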
- Study conditions: second compound 0.1 µM; first compound 0.001 µM; stronger effect = lower value
Listing of entries alongside the reported viability, T/C.
Endpoint label: viability, T/C (%)

molecule="CC[C@@]1(O)C(=O)OCc2c1cc1n(c2=O)Cc2cc3c(CN(C)C)c(O)ccc3nc2-1 + NC1CCC(NC2CC2c2ccccc2)CC1" unit_of_measurement=% measured_result=11.6
molecule="CC[C@@]1(O)C(=O)OCc2c1cc1n(c2=O)Cc2cc3c(CN(C)C)c(O)ccc3nc2-1 + NC1CC1c1ccc(-c2cccc(O)c2)cc1" unit_of_measurement=% measured_result=12.8
molecule="Cn1ncnc1C1c2n[nH]c(=O)c3cc(F)cc(c23)NC1c1ccc(F)cc1 (stereo not drawn) + NC1CC1c1ccc(-c2cccc(O)c2)cc1" unit_of_measurement=% measured_result=65.8
molecule="Cn1ncnc1C1c2n[nH]c(=O)c3cc(F)cc(c23)NC1c1ccc(F)cc1 (stereo not drawn) + NC1CCC(NC2CC2c2ccccc2)CC1" unit_of_measurement=% measured_result=61.4
molecule="CC(C)CC(NC(=O)CNC(=O)c1cc(Cl)ccc1Cl)B1OC(=O)CC(CC(=O)O)(C(=O)O)O1 (stereo not drawn) + NC1CCC(NC2CC2c2ccccc2)CC1" unit_of_measurement=% measured_result=90.2
molecule="CC(C)CC(NC(=O)C(Cc1ccccc1)NC(=O)c1cnccn1)B(O)O (stereo not drawn) + NC1CC1c1ccc(-c2cccc(O)c2)cc1" unit_of_measurement=% measured_result=108
molecule="CC(C)CC(NC(=O)C(Cc1ccccc1)NC(=O)c1cnccn1)B(O)O (stereo not drawn) + NC1CCC(NC2CC2c2ccccc2)CC1" unit_of_measurement=% measured_result=88.6
molecule="CC(C)CC(NC(=O)CNC(=O)c1cc(Cl)ccc1Cl)B1OC(=O)CC(CC(=O)O)(C(=O)O)O1 (stereo not drawn) + NC1CC1c1ccc(-c2cccc(O)c2)cc1" unit_of_measurement=% measured_result=76.5

----------
- System: NCI-H211 complex spheroid viability
- Assay details: Anticancer human tumor NCI-H211 cell line growth inhibition [LSD1];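 also: luminescent viability read after seven days of drug exposure; 100% = DMSO vehicle control viability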
- Study conditions: second compound 3.16 µM; first compound 0.0316 µM; stronger effect = lower value
For each record, check the reported viability, T/C: if it is below 40% write TRUE, else write FALSE.

compound="CC(C)CC(NC(=O)CNC(=O)c1cc(Cl)ccc1Cl)B1OC(=O)CC(CC(=O)O)(C(=O)O)O1 (configuration not stated) + NC1CC1c1ccc(-c2cccc(O)c2)cc1" label=TRUE
compound="COc1ccc([C@@H](O)c2cc(-c3ncnc4cc(N5CCOCC5)ccc34)c(F)cc2Cl)nn1 + NC1CC1c1ccc(-c2cccc(O)c2)cc1" label=FALSE
compound="CC[C@@]1(O)C(=O)OCc2c1cc1n(c2=O)Cc2cc3c(CN(C)C)c(O)ccc3nc2-1 + NC1CCC(NC2CC2c2ccccc2)CC1" label=TRUE
compound="Nc1ncn(C2CC(O)C(CO)O2)c(=O)n1 (configuration not stated) + NC1CC1c1ccc(-c2cccc(O)c2)cc1" label=TRUE
compound="CC1COCCN1c1cc(C2(S(C)(=N)=O)CC2)nc(-c2ccnc3[nH]ccc23)n1 (configuration not stated) + NC1CCC(NC2CC2c2ccccc2)CC1" label=FALSE
compound="CC1COCCN1c1cc(-c2ccnn2C)c2ccnc(-c3ccn[nH]3)c2n1 (configuration not stated) + NC1CC1c1ccc(-c2cccc(O)c2)cc1" label=TRUE
compound="O=C(c1cc(Cc2n[nH]c(=O)c3ccccc23)ccc1F)N1CCN(C(=O)C2CC2)CC1 + NC1CCC(NC2CC2c2ccccc2)CC1" label=TRUE

----------
- Tested on: NCI-H211 complex spheroid viability
- Assay details: Anticancer human tumor NCI-H211 cell line growth inhibition [LSD1];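 also: luminescent viability read after seven days of drug exposure; 100% = DMSO vehicle control viability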
- Study conditions: second compound 1 µM; first compound 0.00949 µM; stronger effect = lower value
Endpoint label: viability, T/C (%)

compound="O=C(C=Cc1cccc(S(=O)(=O)Nc2ccccc2)c1)NO + NC1CCC(NC2CC2c2ccccc2)CC1" tested_system="NCI-H211 complex spheroid viability" endpoint_label="viability, T/C" unit_of_measurement=% measured_result=17.3
compound="Nc1ccccc1NC(=O)c1ccc(CNC(=O)OCc2cccnc2)cc1 + NC1CC1c1ccc(-c2cccc(O)c2)cc1" tested_system="NCI-H211 complex spheroid viability" endpoint_label="viability, T/C" unit_of_measurement=% measured_result=45.8
compound="CCN(c1cc(-c2ccc(CN3CCOCC3)cc2)cc(C(=O)NCc2c(C)cc(C)[nH]c2=O)c1C)C1CCOCC1 + NC1CCC(NC2CC2c2ccccc2)CC1" tested_system="NCI-H211 complex spheroid viability" endpoint_label="viability, T/C" unit_of_measurement=% measured_result=60.3
compound="COc1cc(C2c3cc4c(cc3C(OC3OC5COC(C)OC5C(O)C3O)C3COC(=O)C23)OCO4)cc(OC)c1O (stereo unspecified) + NC1CC1c1ccc(-c2cccc(O)c2)cc1" tested_system="NCI-H211 complex spheroid viability" endpoint_label="viability, T/C" unit_of_measurement=% measured_result=35.6
compound="Nc1ccccc1NC(=O)c1ccc(CNC(=O)OCc2cccnc2)cc1 + NC1CCC(NC2CC2c2ccccc2)CC1" tested_system="NCI-H211 complex spheroid viability" endpoint_label="viability, T/C" unit_of_measurement=% measured_result=51
compound="NS(=O)(=O)OCC1CC(n2ccc3c(NC4CCc5ccccc54)ncnc32)CC1O (stereo unspecified) + NC1CC1c1ccc(-c2cccc(O)c2)cc1" tested_system="NCI-H211 complex spheroid viability" endpoint_label="viability, T/C" unit_of_measurement=% measured_result=20.4
compound="NS(=O)(=O)OCC1CC(n2ccc3c(NC4CCc5ccccc54)ncnc32)CC1O (stereo unspecified) + NC1CCC(NC2CC2c2ccccc2)CC1" tested_system="NCI-H211 complex spheroid viability" endpoint_label="viability, T/C" unit_of_measurement=% measured_result=15.2
compound="Nc1ccn(C2OC(CO)C(O)C2(F)F)c(=O)n1 (stereo unspecified) + NC1CCC(NC2CC2c2ccccc2)CC1" tested_system="NCI-H211 complex spheroid viability" endpoint_label="viability, T/C" unit_of_measurement=% measured_result=2.28
compound="COc1cc(C2c3cc4c(cc3C(OC3OC5COC(C)OC5C(O)C3O)C3COC(=O)C23)OCO4)cc(OC)c1O (stereo unspecified) + NC1CCC(NC2CC2c2ccccc2)CC1" tested_system="NCI-H211 complex spheroid viability" endpoint_label="viability, T/C" unit_of_measurement=% measured_result=46.1
compound="Nc1ncn(C2CC(O)C(CO)S2)c(=O)n1 (stereo unspecified) + NC1CCC(NC2CC2c2ccccc2)CC1" tested_system="NCI-H211 complex spheroid viability" endpoint_label="viability, T/C" unit_of_measurement=% measured_result=8.75
compound="Nc1ccn(C2OC(CO)C(O)C2(F)F)c(=O)n1 (stereo unspecified) + NC1CC1c1ccc(-c2cccc(O)c2)cc1" tested_system="NCI-H211 complex spheroid viability" endpoint_label="viability, T/C" unit_of_measurement=% measured_result=4.41
compound="CCN(c1cc(-c2ccc(CN3CCOCC3)cc2)cc(C(=O)NCc2c(C)cc(C)[nH]c2=O)c1C)C1CCOCC1 + NC1CC1c1ccc(-c2cccc(O)c2)cc1" tested_system="NCI-H211 complex spheroid viability" endpoint_label="viability, T/C" unit_of_measurement=% measured_result=83.4
compound="CCc1c2c(nc3ccc(O)cc13)-c1cc3c(c(=O)n1C2)COC(=O)[C@]3(O)CC + NC1CCC(NC2CC2c2ccccc2)CC1" tested_system="NCI-H211 complex spheroid viability" endpoint_label="viability, T/C" unit_of_measurement=% measured_result=0.51
compound="CCc1c2c(nc3ccc(O)cc13)-c1cc3c(c(=O)n1C2)COC(=O)[C@]3(O)CC + NC1CC1c1ccc(-c2cccc(O)c2)cc1" tested_system="NCI-H211 complex spheroid viability" endpoint_label="viability, T/C" unit_of_measurement=% measured_result=1.11
compound="O=C(C=Cc1cccc(S(=O)(=O)Nc2ccccc2)c1)NO + NC1CC1c1ccc(-c2cccc(O)c2)cc1" tested_system="NCI-H211 complex spheroid viability" endpoint_label="viability, T/C" unit_of_measurement=% measured_result=13.9
compound="Nc1ncn(C2CC(O)C(CO)S2)c(=O)n1 (stereo unspecified) + NC1CC1c1ccc(-c2cccc(O)c2)cc1" tested_system="NCI-H211 complex spheroid viability" endpoint_label="viability, T/C" unit_of_measurement=% measured_result=8.75
